The measured values listed here are drawn from ChEMBL document CHEMBL3044619.

Test system: Fusarium oxysporum
Experiment: Antifungal activity against Fusarium oxysporum assessed as growth inhibition at 300 uM after 48 hr by microplate photometric analysis
Format: functional
Settings: read-out: GI
readoutName: inhibition of growth at 300 µM

CCCCNC(=O)n1c(NC(=O)OC)nc2ccccc21 [BENOMYL] : 77%
COc1c2occc2cc2ccc(=O)oc12 [METHOXSALEN] : 50%
CCCCCCCCCc1cc(=O)c2ccccc2[nH]1 : 37%
Cn1c(-c2ccc3c(c2)OCO3)cc(=O)c2ccccc21 [GRAVEOLINE] : 44%
O=C1C2CC=CCC2C(=O)N1SC(Cl)(Cl)Cl (stereo not given) [CAPTAN] : 100%
